- assay-system: HIV-1 IN in the presence of LEDGF/p75 (Human immunodeficiency virus type 1 group M subtype B)
- Construct: Recombinant IN and LEDGF/p75 proteins were expressed and purified; made in house
- protocol-summary: HTRF IN LEDGF-dependent assay
- Assay type: biochemical
- condition-set: highest tested concentration
assay-endpoint: Inhibition of HIV-1 IN LEDGF-dependent activity (in words)

CC1(C)CC[C@]2(C(=O)O)CC[C@]3(C)C(=CC[C@@H]4[C@@]5(C)CC[C@H](O)C(C)(C)[C@@H]5CC[C@]43C)[C@@H]2C1 = inactive
O=c1cc(-c2ccc(O)cc2)oc2cc(O[C@@H]3O[C@H](CO)[C@@H](O)[C@H](O)[C@H]3O)cc(O)c12 [Apigenin 7-O-glucoside] = totally inactive
C[C@H]1[C@H](C)CC[C@]2(C(=O)O)CC[C@]3(C)C(=CC[C@@H]4[C@@]5(C)CC[C@H](O)C(C)(C)[C@@H]5CC[C@]43C)[C@H]12 = inactive
O=c1cc(-c2ccc(O[C@@H]3O[C@H](CO)[C@@H](O)[C@H](O)[C@H]3O)c(O)c2)oc2cc(O)cc(O)c12 [Luteolin 4′-O-glucoside] = totally inactive

---

- assay-system: HIV-1 IN in the presence of LEDGF/p75 (Human immunodeficiency virus type 1 group M subtype B)
- Construct: Recombinant IN and LEDGF/p75 proteins were expressed and purified
- protocol-summary: HTRF IN LEDGF-dependent assay
- condition-set: pure compounds; in the presence of LEDGF; read-out: HIV-1 Integrase LEDGF-Dependent IC50
assay-endpoint: IC50 (µM)
Field: numeric (µM). Do not append units.

C=C(C)[C@@H]1CC[C@]2(C(=O)O)CC[C@]3(C)[C@H](CC[C@@H]4[C@@]5(C)CC[C@H](O)C(C)(C)[C@@H]5CC[C@]43C)[C@@H]12 = 96.5
O=c1oc2c(O)c(O)cc3c(=O)oc4c(O)c(O)cc1c4c23 = 0.075

Now let's try a different one.
*Q* Suppose we examine the compound O=C1OC2C(O)OC3COC(=O)c4cc(O)c(O)c(O)c4-c4c(O)c(O)c5oc(=O)c6c(c(O)c(O)c7oc(=O)c4c5c76)-c4c(cc(O)c(O)c4O)C(=O)OC3C2OC(=O)c2cc(O)c(O)c(O)c2-c2c1cc(O)c(O)c2O (centres unmarked) ; what IC50 value has been reported?
*A* 0.065

Data provenance: paper PMC8539310
